- test: Cytotoxicity against human MDA-MB-231 cells after 72 hrs by MTT assay
- Type: functional, cell-based
- settings: MDA-MB-231, 72 h
Below is a list of entries, each paired with its recorded IC50 value.
observedProperty: IC50 (µM)

> print(dat)
                               linenotation  unittext  numericvalue
1  COc1ncc(-c2ccc3nccc(-c4ccc(CN5CCOCC5)cc4)c3c2)cc1NS(=O)(=O)c1ccc(F)cc1        µM          1.97
2  CN(C)Cc1ccc(-c2ccnc3ccc(-c4cnc(Cl)c(NS(=O)(=O)c5ccc(F)cc5F)c4)cc23)cc1        µM         0.053
3  COc1ncc(-c2ccc3nccc(-c4ccc(CN(C)C)cc4)c3c2)cc1NS(=O)(=O)c1ccc(F)cc1        µM          0.35
4  O=S(=O)(Nc1cc(-c2ccc3nccc(-c4ccc(CN5CCOCC5)cc4)c3c2)cnc1Cl)c1ccc(F)cc1        µM          2.58
5  CN(CCO)Cc1ccc(-c2ccnc3ccc(-c4cnc(Cl)c(NS(=O)(=O)c5ccc(F)cc5)c4)cc23)cc1        µM          0.26

----------
- test: Cytotoxicity against human A549 cells after 72 hrs by MTT assay
- Assay type: functional, cell-based
- settings: A549, 72 h
observedProperty: IC50 (nM)

> print(dat)
                                linenotation  numericvalue
 1  CCN(Cc1ccc(-c2ccnc3ccc(-c4cnc(OC)c(NS(=O)(=O)c5ccc(F)cc5F)c4)cc23)cc1)C1CCCCC1          20.2
 2  COc1ncc(-c2ccc3nccc(-c4ccc(Cn5cccn5)cc4)c3c2)cc1NS(=O)(=O)c1ccc(F)cc1F          30.8
 3  COc1ncc(-c2ccc3nccc(-c4ccc(CN5CCN(CCO)CC5)cc4)c3c2)cc1NS(=O)(=O)c1ccc(F)cc1F          24.8
 4  COc1ncc(-c2ccc3nccc(-c4ccc(CN5CCN(C)CC5)cc4)c3c2)cc1NS(=O)(=O)c1ccc(F)cc1F          13.3
 5  COc1ncc(-c2ccc3nccc(-c4ccc(CN(C)C)cc4)c3c2)cc1NS(=O)(=O)c1ccc(F)cc1F           4.4
 6  COc1ncc(-c2ccc3nccc(-c4ccc(Cn5cncn5)cc4)c3c2)cc1NS(=O)(=O)c1ccc(F)cc1F            16
 7  COc1ncc(-c2ccc3nccc(-c4ccc(Cn5cncn5)cc4)c3c2)cc1NS(=O)(=O)c1ccc(F)cc1            33
 8  COc1ncc(-c2ccc3nccc(-c4ccc(CN5CCOCC5)cc4)c3c2)cc1NS(=O)(=O)c1ccc(F)cc1F            70
 9  O=S(=O)(Nc1cc(-c2ccc3nccc(-c4ccc(Cn5cncn5)cc4)c3c2)cnc1Cl)c1ccc(F)cc1F           642
10  COc1ncc(-c2ccc3nccc(-c4ccc(CN5CCN(C(C)C)CC5)cc4)c3c2)cc1NS(=O)(=O)c1ccc(F)cc1F           1.9
11  COc1ncc(-c2ccc3nccc(-c4ccc(CN(C)CCN(C)C)cc4)c3c2)cc1NS(=O)(=O)c1ccc(F)cc1F            13
12  O=S(=O)(Nc1cc(-c2ccc3nccc(-c4ccc(CN5CCOCC5)cc4)c3c2)cnc1Cl)c1ccc(F)cc1            53
13  COc1ncc(-c2ccc3nccc(-c4ccc(CN(C)CCO)cc4)c3c2)cc1NS(=O)(=O)c1ccc(F)cc1            22
14  COc1ncc(-c2ccc3nccc(-c4ccc(CN(CCO)CCO)cc4)c3c2)cc1NS(=O)(=O)c1ccc(F)cc1F           2.8
15  COc1ncc(-c2ccc3nccc(N4CCOCC4)c3c2)cc1NS(=O)(=O)c1ccc(F)cc1F          2400
16  COc1ncc(-c2ccc3nccc(N4CCCC4)c3c2)cc1NS(=O)(=O)c1ccc(F)cc1F          3410

These entries and their values trace back to ChEMBL document CHEMBL3865829.
